assay-notes: Concentrations of BRL44385 and its prodrugs detected in the blood of mice after oral administration (Table 1)
Assay type: in vivo, female Balb/c mice
experimental-context: mouse, 200 umol/kg, total 9-alkoxypurines, 15 min, 0.2 mmol/kg oral gavage, read-out: Concn in blood at time (min) after dosing: total 9-alkoxypurines, 15
Description: |Concentrations of BRL44385 and its Prodrugs Detected in the |Blood of Mice after Oral Administration of |9-(Alkoxymethoxypropoxy)purines^a | ^a Compounds were administered as single doses of 0.2 mmol/kg in 0.1 | ml of 1% (carboxymethyl)cellulose by oral gavage to female Balb/c mice | weighing approximately 20 g. Food was withheld for 18 h prior to the star | of the experiment. Blood was collected by cardiac puncture using | heparinised syringes 15, 60 and 180 min after dosing. […]
assay-metric: concentration at 0.25 h (µM)
// return numeric value only (unit: µM, not printed)

INPUT: Give a short answer stating reported concentration at 0.25 h for Nc1nc(O)c2ncn(OCCCO)c2n1 [Example E1, 9-(3-hydroxyprop-1-oxy)guanine] .
OUTPUT: 8.9
